pIC50: −log10 of the molar value.
Target or system Heat shock protein HSP 90-alpha (Homo sapiens, UniProt P07900); metric pIC50; compiled from varied reports.

[[record]]
compound = "Cc1cc(C(N)=O)c(N[C@H](C)C(C)(C)C)cc1C(=O)NC1CC2CCC(C1)N2c1ccc(C(=O)C2CC2)cn1 (stereo partly shown)"
measurement_type = "pIC50"
value_measured = "> 6.30"

[[record]]
compound = "COc1c(C)cnc(CN2c3nc(N)ncc3N(C)C[C@H]2C)c1C"
measurement_type = "pIC50"
value_measured = 4.81


Prompt line: Give Heat shock protein HSP 90-alpha (Homo sapiens, UniProt P07900) pIC50 for `Cc1cc(C(N)=O)c(NCC(C)C)cc1C(=O)N[C@H]1C[C@H]2CC[C@@H](C1)N2c1ccc(C(=O)C2CC2)cn1`
Response line: > 6.30

Prompt line: Which pIC50 is reported with Heat shock protein HSP 90-alpha (Homo sapiens, UniProt P07900) for this entry: `CCNC(=O)c1noc(-c2cc(C(C)C)c(O)cc2O)c1-c1ccc(CN(C)CCCCCCC(=O)NO)cc1` ?
Response line: ≥ 7.00

Prompt line: GET /values?readout=pIC50&system=Heat shock protein HSP 90-alpha (Homo sapiens, UniProt P07900)&item= COc1cccc(C(=O)NC2CC3CCC(C2)N3c2ccc(C(=O)NCC3CCNC3)cn2)c1C (stereo not shown)
Response line: > 6.30

Prompt line: API: value(readout=pIC50, system=Heat shock protein HSP 90-alpha (Homo sapiens, UniProt P07900)) for record COc1cccc(C(=O)NC2CC3CCC(C2)N3c2ccc(C(=O)NC(C)c3ccc(Br)cc3F)cn2)c1C (stereo not shown)
Response line: 5.00 to 5.70

Prompt line: # get_value(readout= pIC50, system= Heat shock protein HSP 90-alpha (Homo sapiens, UniProt P07900)) for `CC(=O)c1ccc(N2[C@@H]3CC[C@H]2C[C@@H](NC(=O)c2ccc(C(N)=O)c(Nc4ccccc4)c2)C3)nc1`
Response line: > 6.30

Prompt line: What measured pIC50 is associated with `COc1cccc(C(=O)N[C@H]2C[C@H]3CC[C@@H](C2)N3c2ccc(C(=O)NCc3c(F)ccc(F)c3Cl)cn2)c1C` on Heat shock protein HSP 90-alpha (Homo sapiens, UniProt P07900)?
Response line: > 6.30

Prompt line: What is its pIC50 for Heat shock protein HSP 90-alpha (Homo sapiens, UniProt P07900)? Entry: `COc1cccc(C(=O)N[C@H]2C[C@H]3CC[C@@H](C2)N3c2ccc(C(=O)NCCC(C)(C)C)cn2)c1C`
Response line: 5.00 to 5.70

Prompt line: Any idea what pIC50 came out for `COc1c(C)cnc(CN2CC(=O)N(CCC(C)C)c3c(Cl)nc(N)nc32)c1C` on Heat shock protein HSP 90-alpha (Homo sapiens, UniProt P07900)?
Response line: 7.01
